system: VchCAST RNA-guided transposition machinery (E. coli BL21(DE3) host, lacZ target); assay: relative integration efficiency (T-LR orientation) vs wild-type transposon end (log2 (normalized fold change)); transposon end mutated: right end (5 bp flank + 75 bp right end); higher = more efficient transposition
Label scheme for relative integration efficiency (log2): lower than -0.7 is No, -0.7 and above is Yes.

Previously resolved entries follow.
>>> classification("ACATTTGTTGATACAACCATAAAGTGATATTTACAACCATATATTGATATCTCTCACAACCATATATTGATATCTCCTCTGATCATAGTCAGACCAACATTGCTACGACCCGTATTCGCACCGACAC")
"Yes"
>>> classification("ACATTTGTTGATACAACCATAAGTTGATATTTTCAACCATAAAGTGATATTTATCACAACCATAAAGTGATATTTACTCTGATCATAGTCAGACCAACATTGCTACGACCCGTATTCGCACCGACAC")
"Yes"
>>> classification("ACATTTGTTGATACAACCATAAAATGATAATTACACCCATAAATACATAATTATCACACCCATAAATTGATATTGCCTCTGATCATAGTCAGACCAACATTGCTACGACCCGTATTCGCACCGACAC")
"No"

Asked: Kindly determine if relative integration efficiency (log2) recorded for ACATTTGTTGATACAACCATAAAATGATAATTACACCCATAAATTGATAAGGATCACACCCATAAATTGATATTGCCTCTGATCATAGTCAGACCAACATTGCTACGACCCGTATTCGCACCGACAC is above or exactly -0.7.
Given back: Yes

Asked: Item ACATTTGTGGATACAACCCTAAAATGATAATTACACCCATAAATGGATCATTATCACCCCCAATTTAACTATAACGCTCTGATCATAGTCAGACCAACATTGCTACGACCCGTATTCGCACCGACAC with relative integration efficiency (log2) of -0.7 or above?
Given back: No
